Target or system: recombinant DYRK1A kinase (Homo sapiens (Human), UniProt Q13627)
Assay method text: DYRK1A kinase assay (Ser/Thr 18 peptide Z-lyte FRET);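 also: Read-out is the coumarin to fluorescein emission ratio, referenced to unphosphorylated (0%) and phosphorylated (100%) Ser/Thr 18 peptide controls, values from dose-response curves by non-linear regression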
Conditions: 30 μM ATP, 1 h room temperature
Recorded EC50, one value per entry.
Write the answer as a number in µM, unit excluded.

Exercise: Write down EC50 measured for item Cn1cc(-c2ccc3cnc(NC(=O)CN4C[C@@H]5C[C@H]4CO5)cc3c2)cn1
Solution: 0.004

Exercise: Write down EC50 measured for item CC(C)CN1CCC(F)(C(=O)Nc2cc3cc(-c4cnn(C)c4)ccc3cn2)CC1
Solution: 0.0071

Exercise: Write down EC50 measured for item CN1CCN(CC(=O)Nc2cc3cc(-c4cnn(C)c4)cc(F)c3cn2)CC1
Solution: 0.0314

Exercise: Write down EC50 measured for item Cn1cc(-c2ccc3cnc(NC(=O)C4CNC4)cc3c2)cn1
Solution: 0.0039

Exercise: Write down EC50 measured for item C[C@@H](C(=O)Nc1cc2cc(-c3cnn(C)c3)ccc2cn1)N1CCOCC1
Solution: 0.0775

From here, focus on the item given below.
Exercise: Write down EC50 measured for item CC(C)CN1CCC(F)(C(=O)Nc2cc3cc(-n4nccn4)ccc3cn2)CC1
Solution: 1.52

* * *

Tested on: Tau phosphorylation at Ser396 (pSer396)
Assay method text: Tau phosphorylation assay (pSer396 ELISA / western blot) in SH-SY5Y cells;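 also: EC50 for reduction of Tau pSer396 in lysed cells, measured by colorimetric ELISA or chemiluminescent western blot, both using the same pSer396 antibody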
Assay type: cell-based, human
Conditions: Homo sapiens; SH-SY5Y cells, overnight (16-18 h) exposure; read-out: pSer396 Tau EC50
pEC50: −log10 of the molar value.
Binary call on pEC50: fulfilled from 6 upward, not fulfilled beneath that.

Worked examples follow.
Exercise: Given [2H]c1nc(NC(=O)CN2CCCC2)cc2cc(-c3cnn(C)c3)ccc12 , state whether its pEC50 is at least 6.
Solution: fulfilled

Exercise: Given Cn1cc(-c2ccc3cnc(NC(=O)CN4CCCCC4)cc3c2)nn1 , state whether its pEC50 is at least 6.
Solution: fulfilled

Exercise: Given Cn1cncc1-c1ccc2cnc(NC(=O)C3CCN(S(C)(=O)=O)CC3)cc2c1 , state whether its pEC50 is at least 6.
Solution: fulfilled

Exercise: Given O=C(Nc1cc2cc(-c3cnco3)ccc2cn1)[C@@H]1CCCNC1 , state whether its pEC50 is at least 6.
Solution: not fulfilled

Exercise: Given Cn1cc(-c2ccc3cnc(NC(=O)C4CC4)cc3c2)cn1 , state whether its pEC50 is at least 6.
Solution: fulfilled

More entries:
Exercise: Given CC(C)CN1CCC(F)(C(=O)Nc2cc3cc(-c4cnc5n4CCNC5)ccc3cn2)CC1 , state whether its pEC50 is at least 6.
Solution: not fulfilled

Exercise: Given Cn1cc(-c2ccc3cnc(NC(=O)C4CCN(CC(C)(C)C)CC4)cc3c2)cn1 , state whether its pEC50 is at least 6.
Solution: fulfilled

Exercise: Given Cc1nnc(-c2ccc3cnc(NC(=O)C4CCN(CCF)CC4)cc3c2)s1 , state whether its pEC50 is at least 6.
Solution: fulfilled

Exercise: Given Cn1cc(-c2ccc3cnc(NC(=O)[C@H]4C[C@H](N5CCOCC5)C4)cc3c2)cn1 , state whether its pEC50 is at least 6.
Solution: fulfilled

* * *

Test system: Wnt pathway (Sp5-Luc reporter, TCF/LEF binding sites) in SW480 colon carcinoma cells
Assay method text: Screening assay for Wnt activity: Sp5-Luc reporter gene assay;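 also: firefly luciferase luminescence read in stably transduced SW480 cells carrying the Sp5 promoter reporter with eight TCF/LEF sites, compounds given in 0.1% DMSO final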
Type: cell-based, human
Conditions: Homo sapiens; Sp5-Luc reporter, SW480 cells, 36 to 48 hours
Quantity kind: log10 EC50 (log10 of the value in µM)
All values: log10 EC50 [µM].

Example entries and their recorded answers appear below.
Exercise: Write down measured log10 EC50 (Wnt pathway (Sp5-Luc reporter, TCF/LEF binding sites) in SW480 colon carcinoma cells) for this molecule. Cn1cncc1-c1ccc2cnc(NC(=O)C3(F)CC3)cc2c1
Solution: 0.26

Exercise: Write down measured log10 EC50 (Wnt pathway (Sp5-Luc reporter, TCF/LEF binding sites) in SW480 colon carcinoma cells) for this molecule. O=C(Nc1cc2cc(-c3cnn(C4CC4)c3)ccc2cn1)C1CCN(CCC(F)(F)F)CC1
Solution: 0.68

Exercise: Write down measured log10 EC50 (Wnt pathway (Sp5-Luc reporter, TCF/LEF binding sites) in SW480 colon carcinoma cells) for this molecule. Cc1ncc(-c2ccc3cnc(NC(=O)CCN4CCOCC4)cc3c2)o1
Solution: 0.57

Exercise: Write down measured log10 EC50 (Wnt pathway (Sp5-Luc reporter, TCF/LEF binding sites) in SW480 colon carcinoma cells) for this molecule. CN1CCn2c(-c3ccc4cnc(NC(=O)C5CC5)cc4c3)cnc2C1
Solution: 0.39

Exercise: Write down measured log10 EC50 (Wnt pathway (Sp5-Luc reporter, TCF/LEF binding sites) in SW480 colon carcinoma cells) for this molecule. Cn1cc(-c2ccc3cnc(NC(=O)C4CCNCC4)cc3c2)cn1
Solution: -0.04

More entries:
Exercise: Write down measured log10 EC50 (Wnt pathway (Sp5-Luc reporter, TCF/LEF binding sites) in SW480 colon carcinoma cells) for this molecule. Cn1cc(-c2ccc3cnc(NC(=O)[C@@H]4CCCNC4)cc3c2)nn1
Solution: 0.19

Exercise: Write down measured log10 EC50 (Wnt pathway (Sp5-Luc reporter, TCF/LEF binding sites) in SW480 colon carcinoma cells) for this molecule. Cn1cc(-c2ccc3cnc(NC(=O)C4CCN(CC(=O)OC(C)(C)C)CC4)cc3c2)cn1
Solution: 0.31

Exercise: Write down measured log10 EC50 (Wnt pathway (Sp5-Luc reporter, TCF/LEF binding sites) in SW480 colon carcinoma cells) for this molecule. CN1CCC(N2CCC(C(=O)Nc3cc4cc(-c5cnco5)ccc4cn3)CC2)CC1
Solution: 0.35

Exercise: Write down measured log10 EC50 (Wnt pathway (Sp5-Luc reporter, TCF/LEF binding sites) in SW480 colon carcinoma cells) for this molecule. Cc1ncc(-c2ccc3cnc(NC(=O)[C@H]4CC[C@H](CN5CC(F)C5)CC4)cc3c2)o1
Solution: -0.22

Exercise: Write down measured log10 EC50 (Wnt pathway (Sp5-Luc reporter, TCF/LEF binding sites) in SW480 colon carcinoma cells) for this molecule. CN1CCN(CC23CC(C(=O)Nc4cc5cc(-c6cnn(C)c6)ccc5cn4)(C2)C3)CC1
Solution: 0.87
